Target: T1, human SLC34A2 (human, UniProt O95436 1-690)
T1 sequence (looked up): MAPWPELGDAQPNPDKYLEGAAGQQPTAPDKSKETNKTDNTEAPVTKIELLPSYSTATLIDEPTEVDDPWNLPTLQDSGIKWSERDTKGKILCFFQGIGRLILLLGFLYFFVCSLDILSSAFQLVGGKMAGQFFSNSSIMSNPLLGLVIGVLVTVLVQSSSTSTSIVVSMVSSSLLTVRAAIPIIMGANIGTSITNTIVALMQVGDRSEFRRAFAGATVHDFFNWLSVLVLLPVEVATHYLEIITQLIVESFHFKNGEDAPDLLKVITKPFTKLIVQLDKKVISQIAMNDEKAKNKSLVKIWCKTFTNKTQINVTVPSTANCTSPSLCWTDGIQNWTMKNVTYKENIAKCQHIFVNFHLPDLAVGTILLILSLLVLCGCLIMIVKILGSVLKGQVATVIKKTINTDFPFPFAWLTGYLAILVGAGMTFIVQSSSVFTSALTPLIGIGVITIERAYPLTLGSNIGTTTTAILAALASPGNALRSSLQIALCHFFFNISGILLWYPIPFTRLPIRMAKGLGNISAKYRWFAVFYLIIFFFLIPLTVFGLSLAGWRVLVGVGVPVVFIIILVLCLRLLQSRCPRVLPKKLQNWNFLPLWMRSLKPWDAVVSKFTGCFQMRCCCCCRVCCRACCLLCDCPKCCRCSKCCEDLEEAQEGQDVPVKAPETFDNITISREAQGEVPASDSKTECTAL
Test: cell-based or functional assay
ASSAY_ENDPOINT: ADCC reporter EC50 (nM)
Write the answer as a number in nM, unit excluded.

Past entries and their recorded results:
{"BINDER": "xi55E5B6D12 hIgG1 (antibody, V domains shown, chimeric, hIgG1) VH: QVQLQQSGAEVVNSGASVKMSCKASGYTFTTYNMHWVKQTPGQGLEWIGAIYPGNGDTSYNQRFKGKATFTADRSSGTAYMQLSSLPSEDSAVYYCARGGYANGALVDWGQGTLVTVSA VL: DILMTQSHKFMSTSVGDRVTITCKASQDVGTAVAWYQNKPGQSPKLLIFWTSTRHTGVPDRFTGSGSGTDFTLTISNVQSEDLADYFCQQYSRQPLTFGPGTKLEIK", "OBS_VALUE": 3}
{"BINDER": "xi84F2D10 hIgG1 (antibody, V domains shown, chimeric, hIgG1) VH: QVQLQQPGAVLVKPGASVKMSCKASGYTFTSYNLHWVKQTPGQGLEWIGAIYPGNGDTSYIQKFKGKATLTADKSSSTAYMQLSSLTSEDSAVYYCARGKYGNYEGFAYWGQGTLVTVSA VL: DILLTQSPAILSVSPGERVSISCRASQSIGTSIYWYQQRRNGSPRLLIKFASESISGIPSRFSGSGSGTDFTLSINSVESEDIADYYCQQNNRWPFTFGSGTKLEIK", "OBS_VALUE": 2.5}

Which ADCC reporter EC50 is listed for xi62G10E4G8 hIgG1 (antibody, V domains shown, chimeric, hIgG1) VH: QVQLQQSGAEVVKPGASVKMSCKASGYTFPSYITHWVKQTPGQGLEWIGAIYPGNGDTSYIQKFKGKATLTADKSSSTAYMQLSSLTSEDSAVYYCARGTYGTSAWFTYWGQGTLVTVSA VL: DIVLTQSPATLSVTPGDSVSLSCRARQNIGNNLYWYQQKSHESPRLLIKYASQSISGIPSRFSGSGSGTDFTLTINSVETEDFGVYFCQQSFSWPLTFGAGTKLELK ?
4.8
